The reported numbers originate from ChEMBL document CHEMBL1255567.

- TEST_METHOD_NOTES: AUC (0 to t) in rhesus monkey at 1 mg/kg, po
- Type: ADME, organism-based, Macaca mulatta
- Parameters: dose 1 mg/kg, route oral
- MEASUREMENT_PARAMETERS: plasma
REPORTED_PROPERTY: AUC(0-t) (µM·h)
Give bare numbers, in µM·h.

In: Indicate its recorded AUC(0-t); the molecule in question is `N#Cc1cc(F)cc(N2CCCc3oc(-c4ccccn4)nc3C2)c1`
Out: 0.28

====

- TEST_METHOD_NOTES: Half life in rhesus monkey at 1 mg/kg, iv
- Assay type: ADME, organism-based, Macaca mulatta
- Design: dose 1 mg/kg, route intravenous
- MEASUREMENT_PARAMETERS: in vivo
REPORTED_PROPERTY: half-life (min)
Answers are plain numbers, in min.

In: // Input: `N#Cc1cc(F)cc(N2CCCc3oc(-c4ccccn4)nc3C2)c1` . Output its half-life only.
Out: 40.2

====

- TEST_METHOD_NOTES: Half life in Sprague-Dawley rat at 2 mg/kg, po
- Format: ADME, organism-based
- Set-up: dose 2 mg/kg, route oral
- MEASUREMENT_PARAMETERS: in vivo
REPORTED_PROPERTY: half-life (min)
Give bare numbers, in min.

In: Return half-life for the following compound: `N#Cc1cc(F)cc(N2CCCc3oc(-c4ccccn4)nc3C2)c1`
Out: 46.2

====

- TEST_METHOD_NOTES: Volume of distribution in rhesus monkey at 1 mg/kg, iv
- Assay type: ADME, organism-based, Macaca mulatta
- Parameters: dose 1 mg/kg, route intravenous
- MEASUREMENT_PARAMETERS: in vivo
REPORTED_PROPERTY: Vd (L/kg)
Answers are plain numbers, in L/kg.

In: Tell me measured Vd for `N#Cc1cc(F)cc(N2CCCc3oc(-c4ccccn4)nc3C2)c1` please.
Out: 0.95

====

- TEST_METHOD_NOTES: Cmax in Sprague-Dawley rat at 2 mg/kg, po
- Format: ADME, organism-based
- Parameters: dose 2 mg/kg, route oral
- MEASUREMENT_PARAMETERS: in vivo
REPORTED_PROPERTY: Cmax (nM)
Numbers only, in nM.

In: Supply Cmax value. Item: `N#Cc1cc(F)cc(N2CCCc3oc(-c4ccccn4)nc3C2)c1`
Out: 620

====

Give inhibition for every item shown.
- STUDY_SYSTEM: Metabotropic glutamate receptor 5 (Homo sapiens)
- Sequence (P41594 21-1212 limits assumed): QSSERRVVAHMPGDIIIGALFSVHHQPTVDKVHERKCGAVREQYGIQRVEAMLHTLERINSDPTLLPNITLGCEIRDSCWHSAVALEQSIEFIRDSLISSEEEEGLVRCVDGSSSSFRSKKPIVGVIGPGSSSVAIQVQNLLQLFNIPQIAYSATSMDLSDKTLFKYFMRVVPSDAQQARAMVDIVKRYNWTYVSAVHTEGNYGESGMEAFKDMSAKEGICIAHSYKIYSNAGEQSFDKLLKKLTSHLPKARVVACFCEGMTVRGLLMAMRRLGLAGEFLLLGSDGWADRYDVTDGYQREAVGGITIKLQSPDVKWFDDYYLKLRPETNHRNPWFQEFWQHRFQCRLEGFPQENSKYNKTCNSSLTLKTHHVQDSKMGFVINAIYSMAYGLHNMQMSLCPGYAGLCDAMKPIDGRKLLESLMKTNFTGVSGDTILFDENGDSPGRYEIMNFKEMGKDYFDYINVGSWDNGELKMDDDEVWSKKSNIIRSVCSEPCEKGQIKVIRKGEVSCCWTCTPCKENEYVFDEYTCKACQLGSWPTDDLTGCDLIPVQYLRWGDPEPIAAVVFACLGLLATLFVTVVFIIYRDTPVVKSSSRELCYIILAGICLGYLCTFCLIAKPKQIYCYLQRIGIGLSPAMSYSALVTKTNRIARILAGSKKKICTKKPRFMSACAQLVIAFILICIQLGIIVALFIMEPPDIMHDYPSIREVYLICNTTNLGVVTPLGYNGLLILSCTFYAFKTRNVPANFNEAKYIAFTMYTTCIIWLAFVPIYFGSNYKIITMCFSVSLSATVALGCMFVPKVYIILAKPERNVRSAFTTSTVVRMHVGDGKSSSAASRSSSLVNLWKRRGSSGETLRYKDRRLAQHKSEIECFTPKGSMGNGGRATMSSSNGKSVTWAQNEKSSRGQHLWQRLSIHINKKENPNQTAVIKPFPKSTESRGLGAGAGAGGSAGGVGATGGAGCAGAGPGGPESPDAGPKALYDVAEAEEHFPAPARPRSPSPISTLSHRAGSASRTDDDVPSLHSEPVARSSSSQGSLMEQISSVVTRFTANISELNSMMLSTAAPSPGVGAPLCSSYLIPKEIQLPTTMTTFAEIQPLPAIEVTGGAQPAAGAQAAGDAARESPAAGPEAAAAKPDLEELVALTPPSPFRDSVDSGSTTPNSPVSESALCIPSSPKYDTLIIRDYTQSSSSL
- TEST_METHOD_NOTES: Modulation of human recombinant mGluR5 expressed in CHO cells assessed as inhibition of glutamate-induced response at 10 uM
- Type: cell-based
Answers are plain numbers, in %.

compound=N#Cc1cccc(N2CCc3nc(-c4cccnc4)oc3C2)c1 output_unit=% value_reported=14
compound=N#Cc1cccc(N2CCc3oc(-c4ccncc4)nc3C2)c1 output_unit=% value_reported=30

I would be grateful if you could provide inhibition for each of the following entries.
1. N#Cc1cccc(CN2CCc3nc(-c4ccccn4)oc3C2)c1
2. N#Cc1cc(F)cc(N2CCc3nc(-c4ccccn4)sc3C2)c1
3. CC(C)N1CCc2oc(-c3ccccn3)nc2C1

Out:
[55, 52, 0]

Hi team, please reply with inhibition for each item in this list.
1. c1ccc(-c2nc3c(o2)CCN(C2CCCCC2)C3)nc1
2. CC(C)c1nc2c(o1)CN(c1cccc(C#N)c1)CC2
3. Cc1nc2c(o1)CCN(c1ncccc1C#N)C2
4. N#Cc1cccnc1N1CCc2nc(-c3ccccc3)oc2C1

Out:
1. 0
2. 6
3. 7
4. 79

// input: 3 compounds below; output: inhibition for each
1. COC(=O)N1CCc2oc(-c3ccccn3)nc2C1
2. c1ccc(-c2nc3c(o2)CCN(C2CCNCC2)C3)nc1
3. N#Cc1cccc(N2CCc3nc(C4CCCCN4)oc3C2)c1 (racemic)

Out:
1. 11
2. 0
3. 79
